// data source = paper PMC8152971

Assignment: determine reported K(upper/lower) Value for the given compounds.
Assay: Partition coefficient (K upper/lower) in biphasic CCC solvent systems
Format: physicochemical
Settings: EtOAc/n-BuOH/H2O, 2:3:5; 208 mM formic acid
Answers are plain numbers.

compound	value
O=C(/C=C/c1ccc(O)c(O)c1)O[C@H]1[C@H](O)C[C@](O)(C(=O)O)C[C@H]1OC(=O)/C=C/c1ccc(O)c(O)c1 [3,4-diCQA (4), 3,4-di-O-caffeoylquinic acid]	20.24

Here are 3 compounds. What values of K(upper/lower) Value were reported for them?
1. O=C(/C=C/c1ccc(O)c(O)c1)O[C@@H]1C[C@@](O)(C(=O)O)C[C@@H](O)[C@@H]1O [3-CQA (1), 3-O-caffeoylquinic acid]
2. O=C(/C=C/c1ccc(O)c(O)c1)O[C@@H]1C[C@](O)(C(=O)O)C[C@@H](O)[C@H]1O [5-CQA (2), 5-O-caffeoylquinic acid]
3. O=C(/C=C/c1ccc(O)c(O)c1)O[C@@H]1C[C@](O)(C(=O)O)C[C@@H](OC(=O)/C=C/c2ccc(O)c(O)c2)[C@H]1O [3,5-diCQA (5), 3,5-di-O-caffeoylquinic acid]

[2.49, 6.86, 38.56]

Here are 2 compounds. What values of K(upper/lower) Value were reported for them?
1. O=C(/C=C/c1ccc(O)c(O)c1)O[C@@H]1[C@H](O)C[C@@](O)(C(=O)O)C[C@H]1OC(=O)/C=C/c1ccc(O)c(O)c1 [4,5-diCQA (6), 4,5-di-O-caffeoylquinic acid]
2. O=C(/C=C/c1ccc(O)c(O)c1)O[C@@H]1C[C@](O)(C(=O)O)C[C@@H](OC(=O)/C=C/c2ccc(O)c(O)c2)[C@H]1OC(=O)/C=C/c1ccc(O)c(O)c1 [3,4,5-triCQA (7), 3,4,5-tri-O-caffeoylquinic acid]

1. 45.95
2. 29.51

* * *

Assignment: determine reported inhibition at 0.195 µM for the given compounds.
Target: rat lens AR homogenate (aldose reductase) (Rattus norvegicus, UniProt P07943)
Construct: the lenses were removed from the eyes, ground in a mortar; from tissue; host or cells: lens of Sprague–Dawley rats
Experiment: AR inhibition assay
Assay type: biochemical, Sprague–Dawley rats
Details: 0.195 µM; read-out: AR inhibitory Activity Inhibition (%)
Please answer using the number first and the unit second.

                               samplesmiles        recordedendpoint  value
0  O=C(/C=C/c1ccc(O)c(O)c1)O[C@H]1[C@H](O)C[C@](O)(C(=O)O)C[C@H]1OC(=O)/C=C/c1ccc(O)c(O)c1  inhibition at 0.195 µM  50.4%
1  O=C(/C=C/c1ccc(O)c(O)c1)O[C@@H]1C[C@](O)(C(=O)O)C[C@@H](OC(=O)/C=C/c2ccc(O)c(O)c2)[C@H]1OC(=O)/C=C/c1ccc(O)c(O)c1  inhibition at 0.195 µM  27.6%
2  O=C(/C=C/c1ccc(O)c(O)c1)O[C@@H]1[C@H](O)C[C@@](O)(C(=O)O)C[C@H]1OC(=O)/C=C/c1ccc(O)c(O)c1  inhibition at 0.195 µM  44.4%

# context switch: different compound, same inhibition at 0.195 µM
What measured inhibition at 0.195 µM is associated with `O=C(/C=C/c1ccc(O)c(O)c1)O[C@@H]1C[C@](O)(C(=O)O)C[C@@H](OC(=O)/C=C/c2ccc(O)c(O)c2)[C@H]1O` on rat lens AR homogenate (aldose reductase) (Rattus norvegicus, UniProt P07943)?
62.3%

* * *

Assignment: determine reported K(upper/lower) Value for the given compounds.
Assay: Partition coefficient (K upper/lower) in biphasic CCC solvent systems
Assay type: physicochemical
Conditions: EtOAc/n-BuOH/H2O, 4:1:5; 30 mM ammonia

compound	K(upper/lower) Value
O=C(/C=C/c1ccc(O)c(O)c1)O[C@@H]1C[C@](O)(C(=O)O)C[C@@H](OC(=O)/C=C/c2ccc(O)c(O)c2)[C@H]1OC(=O)/C=C/c1ccc(O)c(O)c1 [3,4,5-triCQA (7), 3,4,5-tri-O-caffeoylquinic acid]	0.03
O=C(/C=C/c1ccc(O)c(O)c1)O[C@@H]1C[C@@](O)(C(=O)O)C[C@@H](O)[C@@H]1O [3-CQA (1), 3-O-caffeoylquinic acid]	0.00
O=C(/C=C/c1ccc(O)c(O)c1)O[C@@H]1C[C@](O)(C(=O)O)C[C@@H](O)[C@H]1O [5-CQA (2), 5-O-caffeoylquinic acid]	0.01
O=C(/C=C/c1ccc(O)c(O)c1)O[C@@H]1[C@H](O)C[C@@](O)(C(=O)O)C[C@H]1OC(=O)/C=C/c1ccc(O)c(O)c1 [4,5-diCQA (6), 4,5-di-O-caffeoylquinic acid]	0.01
O=C(/C=C/c1ccc(O)c(O)c1)O[C@@H]1C[C@](O)(C(=O)O)C[C@@H](OC(=O)/C=C/c2ccc(O)c(O)c2)[C@H]1O [3,5-diCQA (5), 3,5-di-O-caffeoylquinic acid]	0.01

# context switch: different compound, same K(upper/lower) Value
Look at this compound and give its reported K(upper/lower) Value. O=C(/C=C/c1ccc(O)c(O)c1)O[C@H]1[C@H](O)C[C@](O)(C(=O)O)C[C@H]1OC(=O)/C=C/c1ccc(O)c(O)c1 [3,4-diCQA (4), 3,4-di-O-caffeoylquinic acid]
0.02

* * *

Molecular target: rat lens AR homogenate (aldose reductase) (Rattus norvegicus, UniProt P07943)
Construct: the lenses were removed from the eyes, ground in a mortar; from tissue; host or cells: lens of Sprague–Dawley rats
Assay: AR inhibition assay
Type: biochemical, Sprague–Dawley rats
Details: rat lens AR; read-out: AR inhibitory Activity IC50
recordedEndpoint: IC50 (nM)
Answers are plain numbers, in nM.

// solved cases for IC50 follow
>>> df
                               samplesmiles                             assayedtarget  value
0  O=C(/C=C/c1ccc(O)c(O)c1)O[C@@H]1C[C@](O)(C(=O)O)C[C@@H](OC(=O)/C=C/c2ccc(O)c(O)c2)[C@H]1OC(=O)/C=C/c1ccc(O)c(O)c1  rat lens AR homogenate (aldose reductase) (Rattus norvegicus, UniProt P07943)    400
1  O=C(/C=C/c1ccc(O)c(O)c1)O[C@H]1[C@H](O)C[C@](O)(C(=O)O)C[C@H]1OC(=O)/C=C/c1ccc(O)c(O)c1  rat lens AR homogenate (aldose reductase) (Rattus norvegicus, UniProt P07943)    220
2  O=C(/C=C/c1ccc(O)c(O)c1)O[C@@H]1C[C@](O)(C(=O)O)C[C@@H](O)[C@H]1O  rat lens AR homogenate (aldose reductase) (Rattus norvegicus, UniProt P07943)    910

Look at this compound and give its reported IC50. `O=C(/C=C/c1ccc(O)c(O)c1)O[C@@H]1[C@H](O)C[C@@](O)(C(=O)O)C[C@H]1OC(=O)/C=C/c1ccc(O)c(O)c1`
230

* * *

Assignment: determine reported K(upper/lower) Value for the given compounds.
Experiment: Partition coefficient (K upper/lower) in biphasic CCC solvent systems
Type: physicochemical
Conditions: EtOAc/n-BuOH/H2O, 3:2:5; 30 mM ammonia
Answers are plain numbers.

// solved cases for K(upper/lower) Value follow
compound	K(upper/lower) Value
O=C(/C=C/c1ccc(O)c(O)c1)O[C@@H]1C[C@](O)(C(=O)O)C[C@@H](O)[C@H]1O [5-CQA (2), 5-O-caffeoylquinic acid]	0.03
O=C(/C=C/c1ccc(O)c(O)c1)O[C@@H]1C[C@](O)(C(=O)O)C[C@@H](OC(=O)/C=C/c2ccc(O)c(O)c2)[C@H]1O [3,5-diCQA (5), 3,5-di-O-caffeoylquinic acid]	0.01
O=C(/C=C/c1ccc(O)c(O)c1)O[C@@H]1C[C@@](O)(C(=O)O)C[C@@H](O)[C@@H]1O [3-CQA (1), 3-O-caffeoylquinic acid]	0.05
O=C(/C=C/c1ccc(O)c(O)c1)O[C@H]1[C@H](O)C[C@](O)(C(=O)O)C[C@H]1OC(=O)/C=C/c1ccc(O)c(O)c1 [3,4-diCQA (4), 3,4-di-O-caffeoylquinic acid]	0.03
O=C(/C=C/c1ccc(O)c(O)c1)O[C@@H]1[C@H](O)C[C@@](O)(C(=O)O)C[C@H]1OC(=O)/C=C/c1ccc(O)c(O)c1 [4,5-diCQA (6), 4,5-di-O-caffeoylquinic acid]	0.05

# context switch: different compound, same K(upper/lower) Value
Look at this compound and give its reported K(upper/lower) Value. O=C(/C=C/c1ccc(O)c(O)c1)O[C@@H]1C[C@](O)(C(=O)O)C[C@@H](OC(=O)/C=C/c2ccc(O)c(O)c2)[C@H]1OC(=O)/C=C/c1ccc(O)c(O)c1 [3,4,5-triCQA (7), 3,4,5-tri-O-caffeoylquinic acid]
0.22

* * *

Biological target: rat lens AR homogenate (aldose reductase) (Rattus norvegicus)
Construct: the lenses were removed from the eyes, ground in a mortar; from tissue; host or cells: lens of Sprague–Dawley rats
Test: AR inhibition assay
Type: biochemical, Sprague–Dawley rats
Details: 0.391 µM; read-out: AR inhibitory Activity Inhibition (%)
Assignment: determine reported inhibition at 0.391 µM for the given molecules.
Numbers only, in %.

// solved cases for inhibition at 0.391 µM follow
                               samplesmiles  value
0  O=C(/C=C/c1ccc(O)c(O)c1)O[C@@H]1C[C@](O)(C(=O)O)C[C@@H](O)[C@H]1O   30.8
1  O=C(/C=C/c1ccc(O)c(O)c1)O[C@@H]1[C@H](O)C[C@@](O)(C(=O)O)C[C@H]1OC(=O)/C=C/c1ccc(O)c(O)c1   65.9
2  O=C(/C=C/c1ccc(O)c(O)c1)O[C@@H]1C[C@](O)(C(=O)O)C[C@@H](OC(=O)/C=C/c2ccc(O)c(O)c2)[C@H]1OC(=O)/C=C/c1ccc(O)c(O)c1   49.7
3  O=C(/C=C/c1ccc(O)c(O)c1)O[C@@H]1C[C@](O)(C(=O)O)C[C@@H](OC(=O)/C=C/c2ccc(O)c(O)c2)[C@H]1O   75.6

# context switch: different molecule, same inhibition at 0.391 µM
Look at this molecule and give its reported inhibition at 0.391 µM. `O=C(/C=C/c1ccc(O)c(O)c1)O[C@H]1[C@H](O)C[C@](O)(C(=O)O)C[C@H]1OC(=O)/C=C/c1ccc(O)c(O)c1`
68.7
